Values compiled from ChEMBL document CHEMBL2203281.

experiment: Cytotoxicity against dog MDCK cells assessed as cell viability by MTS assay; assay type: cell-based, Canis lupus familiaris
Recorded endpoint: CC50

Worked cases, CC50 given:
| Compound | Obs value |
| --- | --- |
| CC(C)(C)C1CCC2(CC1)SCC(=O)N2NC(=O)C12CC3CC(CC(C3)C1)C2 (stereo unspecified) | > 100 µM |
| Cc1nc2sccn2c1C(=O)NN1C(=O)C(C)SC12CCC(C)CC2 (stereo unspecified) | > 100 µM |
| NC12CC3CC(CC(C3)C1)C2 | > 500 µM |
| CC1CCC2(CC1)SCC(=O)N2NC(=O)C12CC3CC(CC(C3)C1)C2 (stereo unspecified) | > 100 µM |
| CCCC1CCC2(CC1)SC(C)C(=O)N2NC(=O)C12CC3CC(CC(C3)C1)C2 (stereo unspecified) | > 100 µM |

Entry under review: CC(N)C12CC3CC(CC(C3)C1)C2 (stereo unspecified) . Reported CC50?
218 µM

Entry under review: CC1SC2(CCCCC2)N(NC(=O)C23CC4CC(CC(C4)C2)C3)C1=O (stereo unspecified) . Reported CC50?
> 100 µM

* * *

test system: Influenza B virus; test: Antiviral activity against Influenza B virus (B/HK/5/72) infected in MDCK cells assessed as virus-induced cytopathic effect after 3 days by MTS assay; type: functional, cell-based; settings: B/Hong Kong/05/1972, MDCK, 72 h
pEC50: −log10 of the molar value.
Recorded pEC50, one value per entry.

Worked cases, pEC50 given:
| Molecule | Target under test | pEC50 |
| --- | --- | --- |
| O=C1CSC2(CCC(c3ccccc3)CC2)N1NC(=O)C12CC3CC(CC(C3)C1)C2 (stereo unspecified) | Influenza B virus | < 4.00 |
| CCC1CCC2(CC1)SC(C)C(=O)N2NC(=O)C12CC3CC(CC(C3)C1)C2 (stereo unspecified) | Influenza B virus | < 4.00 |
| CCCC1CCC2(CC1)SCC(=O)N2NC(=O)C12CC3CC(CC(C3)C1)C2 (stereo unspecified) | Influenza B virus | < 4.00 |
| CC1CCC2(CC1)SCC(=O)N2NC(=O)C12CC3CC(CC(C3)C1)C2 (stereo unspecified) | Influenza B virus | < 4.00 |
| CC1SC2(CCCCC2)N(NC(=O)C23CC4CC(CC(C4)C2)C3)C1=O (stereo unspecified) | Influenza B virus | < 4.00 |

Entry under review: CC1SC2(CCC(c3ccccc3)CC2)N(NC(=O)C23CC4CC(CC(C4)C2)C3)C1=O (stereo unspecified) . Reported pEC50?
< 4.00

Entry under review: NC12CC3CC(CC(C3)C1)C2 . Reported pEC50?
< 3.30

Entry under review: NC(=O)c1ncn([C@@H]2O[C@H](CO)[C@@H](O)[C@H]2O)n1 . Reported pEC50?
6.85

Entry under review: CC1CCC2(CC1)SC(C)C(=O)N2NC(=O)C12CC3CC(CC(C3)C1)C2 (stereo unspecified) . Reported pEC50?
< 4.00

Entry under review: CC(C)(C)C1CCC2(CC1)SCC(=O)N2NC(=O)C12CC3CC(CC(C3)C1)C2 (stereo unspecified) . Reported pEC50?
< 4.00

Entry under review: CC(N)C12CC3CC(CC(C3)C1)C2 (stereo unspecified) . Reported pEC50?
< 3.30
